Reference source for all entries: paper PMC11619978

Exercise: for every item that follows, state its recorded IC50.
measured_target: UniProt P10253
protocol: α-glucosidase inhibition assay
Type: biochemical
One number for each entry, in µM.

{"structure_as_smiles": "CC(C)[C@@H]1CC[C@@H](C)C[C@@]12N(C)C(=O)[C@@H]1C[C@@H](Cc3cccc(/C=N/NC(=O)Nc4ccccc4)c3O)ON12", "IC50 (µM)": 263}
{"structure_as_smiles": "CNC(=S)N/N=C/c1cccc(C[C@@H]2C[C@H]3C(=O)N(C)[C@@]4(C[C@H](C)CC[C@H]4C(C)C)N3O2)c1O", "IC50 (µM)": 158}
{"structure_as_smiles": "CC(C)[C@@H]1CC[C@@H](C)C[C@@]12N(C)C(=O)[C@@H]1C[C@@H](Cc3cccc(/C=N/NC(N)=S)c3O)ON12", "IC50 (µM)": 49.3}
{"structure_as_smiles": "CCNC(=S)N/N=C/c1cccc(C[C@@H]2C[C@H]3C(=O)N(C)[C@@]4(C[C@H](C)CC[C@H]4C(C)C)N3O2)c1O", "IC50 (µM)": 203}
{"structure_as_smiles": "CC(C)[C@@H]1CC[C@@H](C)C[C@@]12N(C)C(=O)[C@@H]1C[C@@H](Cc3cccc(/C=N/NC(=S)Nc4ccccc4)c3O)ON12", "IC50 (µM)": 286}

I need IC50 for every entry listed below, if you could help.
1. CC(C)[C@@H]1CC[C@@H](C)C[C@@]12N(C)C(=O)[C@@H]1C[C@@H](Cc3cccc(/C=N/NC(=S)N(C)C)c3O)ON12
2. CC(C)[C@@H]1CC[C@@H](C)C[C@@]12N(C)C(=O)[C@@H]1C[C@@H](Cc3cccc(/C=N/NC(N)=O)c3O)ON12

Outgoing:
1. 98.6
2. 39.1
